# test-target: T1, extracellular domain of human ROR2 (human, UniProt Q01974 34-403)
# T1 construct: bought protein; biotinylated in the bivalent assay format; also called Acro Cat. No. RO2-H52E5
# T1 sequence (Q01974 34-403 limits assumed): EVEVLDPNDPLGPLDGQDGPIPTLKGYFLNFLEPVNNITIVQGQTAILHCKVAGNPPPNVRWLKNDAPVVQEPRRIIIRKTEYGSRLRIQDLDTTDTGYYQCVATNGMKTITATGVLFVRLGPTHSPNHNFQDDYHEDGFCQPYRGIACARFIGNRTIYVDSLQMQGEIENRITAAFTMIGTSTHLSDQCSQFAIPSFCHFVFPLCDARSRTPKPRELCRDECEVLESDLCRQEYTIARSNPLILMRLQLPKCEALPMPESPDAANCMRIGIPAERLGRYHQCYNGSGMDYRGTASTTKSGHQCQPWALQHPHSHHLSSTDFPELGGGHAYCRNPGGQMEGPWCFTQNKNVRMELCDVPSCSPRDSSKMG
# method-description: BLI, IgG1 on biosensor, soluble ROR ectodomain

binder	binding result
I2A-12 IgG1 (antibody, V domains shown, human IgG1) VH: EVQLVESGGGLVQPGGSLRLSCAASGFTFTTYYIHWVRQAPGKGLEWVAYISPEDGYTSYADSVKGRFTISADTSKNTAYLQMNSLRAEDTAVYYCARAYYSAVMDYWGQGTLVTVSS VL: DIQMTQSPSSLSASVGDRVTITCRASQSVSSAVAWYQQKPGKAPKLLIYSASSLYSGVPSRFSGSRSGTDFTLTISSLQPEDFATYYCQQSWSPATTFGQGTKVEIK	no binding
I2C-2 IgG1 (antibody, V domains shown, human IgG1) VH: EVQLVESGGGLVQPGGSLRLSCAASGFTFSDYFIHWVRQAPGKGLEWVAGIYPYSGYTKYADSVKGRFTISADTSKNTAYLQMNSLRAEDTAVYYCARDHSPVLDYWGQGTLVTVSS VL: DIQMTQSPSSLSASVGDRVTITCRASQSVSSAVAWYQQKPGKAPKLLIYSASSLYSGVPSRFSGSRSGTDFTLTISSLQPEDFATYYCQQWYYWPGTFGQGTKVEIK	binds
I2A-20 IgG1 (antibody, V domains shown, human IgG1) VH: EVQLVESGGGLVQPGGSLRLSCAASGFTFSDYGIHWVRQAPGKGLEWVAEIDSWLGYTYYADSVKGRFTISADTSKNTAYLQMNSLRAEDTAVYYCARSPYHYLYYGLDYWGQGTLVTVSS VL: DIQMTQSPSSLSASVGDRVTITCRASQSVSSAVAWYQQKPGKAPKLLIYSASSLYSGVPSRFSGSRSGTDFTLTISSLQPEDFATYYCQQLSSSLGTFGQGTKVEIK	no binding
I2A-8 IgG1 (antibody, V domains shown, human IgG1) VH: EVQLVESGGGLVQPGGSLRLSCAASGFTFYGYYIHWVRQAPGKGLEWVAGIRPGGTYTYYADSVKGRFTISADTSKNTAYLQMNSLRAEDTAVYYCARYRYPAFDYWGQGTLVTVSS VL: DIQMTQSPSSLSASVGDRVTITCRASQSVSSAVAWYQQKPGKAPKLLIYSASSLYSGVPSRFSGSRSGTDFTLTISSLQPEDFATYYCQQRRQHLWTFGQGTKVEIK	no binding
I2A-19 IgG1 (antibody, V domains shown, human IgG1) VH: EVQLVESGGGLVQPGGSLRLSCAASGFTFSSYFIHWVRQAPGKGLEWVAWIYPSGSYTYYADSVKGRFTISADTSKNTAYLQMNSLRAEDTAVYYCAREMDRVGYSGMDYWGQGTLVTVSS VL: DIQMTQSPSSLSASVGDRVTITCRASQSVSSAVAWYQQKPGKAPKLLIYSASSLYSGVPSRFSGSRSGTDFTLTISSLQPEDFATYYCQQYRTPLGTFGQGTKVEIK	binds
